runDescription: NCI Yeast Anticancer Drug Screen. Data for the mec2-1 strain (AID 157)
studyConditions: S. cerevisiae mec2-1 strain, at 50.0 µM
The panel holds about 79,000 compounds, 15% with a hit somewhere; the sample as a whole holds those more often. Active and inactive are the calls of the source. Cut-off read from the data, not from the text of the source: active = growth inhibition above about 70%; inactive = the rest.
Bench note: report the call from 1 (yes) for active, 0 (no) for inactive

stdin: // return assay outcome for C=C1CCC2[C@@H](CCC3[C@]2(C)CCC[C@]3(C)C(=O)OC)[C@@H]1CC=O (some centres not stated)
stdout: 0 (no)

stdin: // repeat for O=C(Oc1ccc[nH]c1=O)C1CCC1 and report
stdout: 0 (no)

stdin: // repeat for c1ccc(-c2c[s+]cc(-c3ccccc3)c2)cc1 and report
stdout: 1 (yes)

stdin: // repeat for Cc1cnc2cccc(C)c2c1Cl and report
stdout: 0 (no)

stdin: // repeat for COc1ccc(Cl)cc1NC(=O)c1ccc(C(=O)Nc2cc(Cl)ccc2OC)cc1 and report
stdout: 0 (no)

stdin: // repeat for CNC(=O)NC(C)(C)CCCCC(C)(C)NC(=O)NC and report
stdout: 0 (no)

stdin: // repeat for COc1cc(-c2cc(=O)c3c(O)c(OC)c(OC)c(OC)c3o2)ccc1O and report
stdout: 0 (no)

stdin: // repeat for Nc1c(S(=O)(=O)O)cc(Nc2cccc(S(=O)(=O)/C=C/S(=O)(=O)O)c2)c2c1C(=O)c1ccccc1C2=O and report
stdout: 0 (no)

stdin: // repeat for COc1cc(C2c3cc4c(c(OC(=O)c5ccccn5)c3CC3COC(=O)C32)OCO4)cc(OC)c1OC (configuration not stated) and report
stdout: 0 (no)

stdin: // repeat for COc1cc(/C=C2\SC(=S)N(/C=C(/C#N)C(=O)c3ccc4ccccc4c3)C2=O)cc(OC)c1OC and report
stdout: 0 (no)

stdin: // repeat for COC(=O)N1CCc2c(nc(N(C)CCO)[nH]c2=O)C1 and report
stdout: 0 (no)

stdin: // repeat for Clc1ccc2cc(Cl)c3ccccc3c2c1 and report
stdout: 0 (no)

stdin: // repeat for O=C1C2Cc3ccccc3CN2C(=O)N1CN1CCN(CN2C(=O)C3Cc4ccccc4CN3C2=O)CC1 (configuration not stated) and report
stdout: 0 (no)

stdin: // repeat for Cc1ccc(S(=O)(=O)Nc2ccccc2C(=O)c2ccc(C)c(C)c2)cc1 and report
stdout: 0 (no)

stdin: // repeat for CC(C)=CC1C(COCc2cc3c(cc2Br)OCO3)C1(C)C (configuration not stated) and report
stdout: 0 (no)

stdin: // repeat for O=C(O)c1cc(-c2ccccc2O)nc2ccccc12 and report
stdout: 0 (no)

stdin: // repeat for C[N+]1(C)CCCC(O)(C(=O)c2ccccc2)C1 (configuration not stated) and report
stdout: 0 (no)

stdin: // repeat for Cc1[nH]c2ccc(-c3ccccc3)cc2c1CC(=O)OC(C)C and report
stdout: 1 (yes)

stdin: // repeat for CCOC(=O)C(CC)(C(=O)OCC)C(C)CC (configuration not stated) and report
stdout: 0 (no)

stdin: // repeat for SCc1ccc(-c2ccc(CS)cc2)cc1 and report
stdout: 0 (no)

stdin: // repeat for CCc1nc(N)nc(N)c1-c1ccc2nn(-c3ccccc3)[n+]([O-])c2c1 and report
stdout: 0 (no)

stdin: // repeat for Cc1cc(=O)n2c(cc3cccccc32)n1 and report
stdout: 0 (no)
